- System: Gaeumannomyces graminis var. tritici (Ggt)
- test details: In vitro Assay: mycelial growth of Ggt on minimal media agar plates containing test compound
- Type: cell-based
- condition set: 1 ppm in minimal media agar; dark, 19-20° C., 4 to 5 days; diameter of mycelial growth
We label by threshold. Values of In vitro (ppm) 1, Percent Inhibition strictly beneath 70% are met. Values of 70% and up are not met.

[
  {
    "smiles": "CCNC(=O)c1c(Cl)ccc[c]1[Sn]([CH3])([CH3])[CH3]",
    "class": "not met"
  },
  {
    "smiles": "CCN(CC)C(=O)c1c(Cl)ccc[c]1[Sn]([CH3])([CH3])[CH3]",
    "class": "not met"
  },
  {
    "smiles": "CC(C)NC(=O)c1c(Cl)cccc1[Si](C)(C)C",
    "class": "not met"
  },
  {
    "smiles": "CCNC(=O)c1c(F)cccc1SC(C)(C)C",
    "class": "met"
  },
  {
    "smiles": "CC(C)N(O)C(=O)c1c(Cl)cccc1[Si](C)(C)C.[Fe+3].[OH-].[OH-].[OH-]",
    "class": "not met"
  }
]

###

- Test system: Gaeumannomyces graminis var. tritici (Ggt)
- test details: In vitro Assay: mycelial growth of Ggt on minimal media agar plates containing test compound
- Type: cell-based
- condition set: Gaeumannomyces graminis; 0.1 ppm in minimal media agar; dark, 19-20° C., 4 to 5 days; diameter of mycelial growth; read-out: In vitro (ppm) 0.1, Percent Inhibition
Consider the following partition of reported inhibition at 0.1 ppm into named classes: bottom range = under 10%, center range = from 10% up to 30%, top range = 30% and over

[
  {
    "molecule": "CCN(CC)C(=O)c1c(C(F)(F)F)cccc1[Si](C)(C)C",
    "tested on": "Gaeumannomyces graminis var. tritici (Ggt)",
    "class": "bottom range"
  },
  {
    "molecule": "CCN(CC)C(=O)c1c(CF)cccc1[Si](C)(C)C",
    "tested on": "Gaeumannomyces graminis var. tritici (Ggt)",
    "class": "center range"
  },
  {
    "molecule": "CC(CCl)NC(=O)c1c(Cl)cccc1[Si](C)(C)C (centres unmarked)",
    "tested on": "Gaeumannomyces graminis var. tritici (Ggt)",
    "class": "top range"
  },
  {
    "molecule": "COc1ccccc1NC(=O)c1c(Cl)cccc1[Si](C)(C)C",
    "tested on": "Gaeumannomyces graminis var. tritici (Ggt)",
    "class": "center range"
  },
  {
    "molecule": "CCNC(=O)c1cc(N(C)C)ccc1[Si](C)(C)C",
    "tested on": "Gaeumannomyces graminis var. tritici (Ggt)",
    "class": "top range"
  },
  {
    "molecule": "CCNC(=O)c1c(Cl)cccc1[Si](C)(C)CBr",
    "tested on": "Gaeumannomyces graminis var. tritici (Ggt)",
    "class": "top range"
  },
  {
    "molecule": "CCNC(=O)c1cc(C(F)(F)F)ccc1[Si](C)(C)C",
    "tested on": "Gaeumannomyces graminis var. tritici (Ggt)",
    "class": "center range"
  },
  {
    "molecule": "CCNC(=O)c1cc([Si](C)(C)C)sc1[Si](C)(C)C",
    "tested on": "Gaeumannomyces graminis var. tritici (Ggt)",
    "class": "bottom range"
  },
  {
    "molecule": "CCNC(=O)c1ccccc1N(C)C(C)(C)C",
    "tested on": "Gaeumannomyces graminis var. tritici (Ggt)",
    "class": "center range"
  },
  {
    "molecule": "CC(CO)NC(=O)c1c(Cl)cccc1[Si](C)(C)C (centres unmarked)",
    "tested on": "Gaeumannomyces graminis var. tritici (Ggt)",
    "class": "bottom range"
  },
  {
    "molecule": "CCNC(=O)c1cc(Br)sc1[Si](C)(C)C",
    "tested on": "Gaeumannomyces graminis var. tritici (Ggt)",
    "class": "bottom range"
  },
  {
    "molecule": "CC(C)CSC(=O)c1c(Cl)cccc1[Si](C)(C)C",
    "tested on": "Gaeumannomyces graminis var. tritici (Ggt)",
    "class": "bottom range"
  },
  {
    "molecule": "CCNC(=O)c1c([Si](C)(C)C)ccc(C(C)=O)c1Cl",
    "tested on": "Gaeumannomyces graminis var. tritici (Ggt)",
    "class": "center range"
  },
  {
    "molecule": "CCNC(=O)c1c(Cl)cccc1[Si](C)(C)c1ccccc1",
    "tested on": "Gaeumannomyces graminis var. tritici (Ggt)",
    "class": "bottom range"
  },
  {
    "molecule": "C[Si](C)(C)c1cccc(Cl)c1C(=O)NCc1ccc2c(c1)OCO2",
    "tested on": "Gaeumannomyces graminis var. tritici (Ggt)",
    "class": "bottom range"
  },
  {
    "molecule": "CCN(CC)C(=O)c1c(Cl)cccc1[Si](C)(C)c1ccccc1",
    "tested on": "Gaeumannomyces graminis var. tritici (Ggt)",
    "class": "bottom range"
  },
  {
    "molecule": "CCNC(=O)c1c([Si](C)(C)C)ccc(I)c1Cl",
    "tested on": "Gaeumannomyces graminis var. tritici (Ggt)",
    "class": "center range"
  },
  {
    "molecule": "CCNC(=O)c1c(Cl)cccc1[Si](C)(C)C1CCCCC1",
    "tested on": "Gaeumannomyces graminis var. tritici (Ggt)",
    "class": "center range"
  },
  {
    "molecule": "CCNC(=O)c1sc(C)cc1[Si](C)(C)C",
    "tested on": "Gaeumannomyces graminis var. tritici (Ggt)",
    "class": "bottom range"
  },
  {
    "molecule": "CC(C)c1ccccc1NC(=O)c1c(Cl)cccc1[Si](C)(C)C",
    "tested on": "Gaeumannomyces graminis var. tritici (Ggt)",
    "class": "bottom range"
  }
]
